The values you see were collected from ChEMBL document CHEMBL4229546.

Measured pIC50 of individual entries
target: Non-receptor tyrosine-protein kinase TYK2 (Homo sapiens, UniProt P29597)
Sequence (P29597 whole entry): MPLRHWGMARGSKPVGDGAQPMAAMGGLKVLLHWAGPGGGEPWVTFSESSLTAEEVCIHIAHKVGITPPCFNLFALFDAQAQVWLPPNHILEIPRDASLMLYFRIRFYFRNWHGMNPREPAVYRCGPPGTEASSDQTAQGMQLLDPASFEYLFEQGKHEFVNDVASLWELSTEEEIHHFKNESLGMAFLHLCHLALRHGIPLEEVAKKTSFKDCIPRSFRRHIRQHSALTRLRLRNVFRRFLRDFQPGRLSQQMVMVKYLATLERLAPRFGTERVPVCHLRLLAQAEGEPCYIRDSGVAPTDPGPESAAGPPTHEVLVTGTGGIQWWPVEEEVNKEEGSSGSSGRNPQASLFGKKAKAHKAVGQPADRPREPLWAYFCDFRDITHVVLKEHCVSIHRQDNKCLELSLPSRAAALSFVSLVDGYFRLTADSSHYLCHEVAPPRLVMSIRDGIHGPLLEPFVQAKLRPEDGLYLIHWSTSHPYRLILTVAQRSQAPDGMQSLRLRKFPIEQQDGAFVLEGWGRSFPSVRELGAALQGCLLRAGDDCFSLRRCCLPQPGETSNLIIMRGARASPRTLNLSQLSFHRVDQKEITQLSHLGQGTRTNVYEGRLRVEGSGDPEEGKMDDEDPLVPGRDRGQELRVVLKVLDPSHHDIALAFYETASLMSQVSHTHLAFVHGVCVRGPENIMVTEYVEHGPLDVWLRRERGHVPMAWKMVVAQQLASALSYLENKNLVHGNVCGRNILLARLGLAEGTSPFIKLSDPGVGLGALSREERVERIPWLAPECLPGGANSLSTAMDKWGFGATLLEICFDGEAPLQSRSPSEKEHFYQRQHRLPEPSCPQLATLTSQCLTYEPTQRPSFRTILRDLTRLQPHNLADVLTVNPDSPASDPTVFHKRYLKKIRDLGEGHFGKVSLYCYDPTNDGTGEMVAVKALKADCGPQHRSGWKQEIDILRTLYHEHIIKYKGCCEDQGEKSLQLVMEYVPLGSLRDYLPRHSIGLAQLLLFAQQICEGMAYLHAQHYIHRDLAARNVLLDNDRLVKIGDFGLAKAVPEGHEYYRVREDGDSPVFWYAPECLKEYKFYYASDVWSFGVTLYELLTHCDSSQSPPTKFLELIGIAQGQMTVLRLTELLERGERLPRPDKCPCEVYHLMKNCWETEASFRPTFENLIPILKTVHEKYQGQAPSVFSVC
pIC50: −log10 of the molar value.

| Molecule | Target Desc | pIC50 |
| --- | --- | --- |
| C=CC(=O)N1CCCC(Cn2nc(-c3cnn(C)c3)c3c(N)ncnc32)C1 (configuration not stated) | Non-receptor tyrosine-protein kinase TYK2 (Homo sapiens, UniProt P29597) | 5.40 |
| C=CC(=O)N1CCC(n2nc(-c3cnn(C)c3)c3c(N)ncnc32)C1 (configuration not stated) | Non-receptor tyrosine-protein kinase TYK2 (Homo sapiens, UniProt P29597) | 5.85 |
| Cn1cc(-c2nn(C3CCCN(C(=O)CC#N)C3)c3ncnc(N)c23)cn1 (configuration not stated) | Non-receptor tyrosine-protein kinase TYK2 (Homo sapiens, UniProt P29597) | 5.61 |
| C=CC(=O)N1CCC(n2nc(-c3cnn(CCOC)c3)c3c(N)ncnc32)C1 (configuration not stated) | Non-receptor tyrosine-protein kinase TYK2 (Homo sapiens, UniProt P29597) | 5.76 |
| COCCn1cc(-c2nn(C3CCCN(C(=O)CC#N)C3)c3ncnc(N)c23)cn1 (configuration not stated) | Non-receptor tyrosine-protein kinase TYK2 (Homo sapiens, UniProt P29597) | 5.49 |
| C=CC(=O)N1CCCC(Cn2nc(-c3cnn(CCOC)c3)c3c(N)ncnc32)C1 (configuration not stated) | Non-receptor tyrosine-protein kinase TYK2 (Homo sapiens, UniProt P29597) | 5.48 |
| Cn1cc(-c2nn(CC3CCCN(C(=O)CC#N)C3)c3ncnc(N)c23)cn1 (configuration not stated) | Non-receptor tyrosine-protein kinase TYK2 (Homo sapiens, UniProt P29597) | 5.63 |

###

Listed below: IC50 values for each entry.
molecular target: Tyrosine-protein kinase JAK1 (Homo sapiens)
Sequence (P23458 whole entry): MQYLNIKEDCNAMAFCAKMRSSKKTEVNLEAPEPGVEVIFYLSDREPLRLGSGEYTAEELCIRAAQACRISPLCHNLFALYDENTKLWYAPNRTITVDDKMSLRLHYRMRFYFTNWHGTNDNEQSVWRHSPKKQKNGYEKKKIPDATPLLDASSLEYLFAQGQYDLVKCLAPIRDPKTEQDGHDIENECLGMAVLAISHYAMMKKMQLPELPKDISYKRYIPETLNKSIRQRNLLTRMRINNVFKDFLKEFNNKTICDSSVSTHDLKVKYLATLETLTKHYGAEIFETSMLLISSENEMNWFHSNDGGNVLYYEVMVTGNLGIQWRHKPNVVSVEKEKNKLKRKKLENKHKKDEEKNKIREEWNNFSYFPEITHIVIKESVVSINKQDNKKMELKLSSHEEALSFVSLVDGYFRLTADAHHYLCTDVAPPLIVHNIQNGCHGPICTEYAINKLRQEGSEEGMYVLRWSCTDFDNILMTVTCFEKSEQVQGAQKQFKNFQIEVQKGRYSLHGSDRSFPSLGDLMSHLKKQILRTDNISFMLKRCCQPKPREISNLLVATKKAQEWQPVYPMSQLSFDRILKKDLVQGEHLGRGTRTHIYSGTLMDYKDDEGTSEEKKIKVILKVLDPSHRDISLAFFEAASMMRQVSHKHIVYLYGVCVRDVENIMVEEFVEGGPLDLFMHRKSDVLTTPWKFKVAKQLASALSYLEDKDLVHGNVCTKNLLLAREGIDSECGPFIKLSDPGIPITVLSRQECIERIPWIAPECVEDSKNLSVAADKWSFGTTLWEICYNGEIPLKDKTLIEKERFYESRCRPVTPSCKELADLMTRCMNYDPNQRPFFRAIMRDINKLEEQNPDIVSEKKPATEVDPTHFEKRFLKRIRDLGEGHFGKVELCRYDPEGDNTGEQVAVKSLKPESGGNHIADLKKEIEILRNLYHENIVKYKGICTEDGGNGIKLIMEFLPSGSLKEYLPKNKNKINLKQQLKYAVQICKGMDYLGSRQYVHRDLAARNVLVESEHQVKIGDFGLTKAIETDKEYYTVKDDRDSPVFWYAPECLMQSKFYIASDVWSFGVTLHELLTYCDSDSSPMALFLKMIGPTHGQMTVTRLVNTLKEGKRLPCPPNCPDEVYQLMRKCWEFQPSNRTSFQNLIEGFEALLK

| Compound | Target Desc | IC50 (µM) |
| --- | --- | --- |
| CN(C)CC(=O)N1CCCC(n2nc(-c3cnn(C)c3)c3c(N)ncnc32)C1 (stereo not drawn) | Tyrosine-protein kinase JAK1 (Homo sapiens) | 1.37 |
| COCCn1cc(-c2nn(C3CCN(C#N)CC3)c3ncnc(N)c23)cn1 | Tyrosine-protein kinase JAK1 (Homo sapiens) | 0.112 |
| CN(C)CC(=O)N1CCCC(Cn2nc(-c3cnn(C)c3)c3c(N)ncnc32)C1 (stereo not drawn) | Tyrosine-protein kinase JAK1 (Homo sapiens) | 2.29 |
